Where these numbers come from: patent US10414768B2

Target: F508del-CFTR (Homo sapiens, UniProt P13569, DEL508-508)
Construct: expressed in transfected cells; host or cells: HeLa cells (spTCF-ΔF), selected with Zeocin
Sequence (P13569 with tags, fused parts or gaps DEL508-508): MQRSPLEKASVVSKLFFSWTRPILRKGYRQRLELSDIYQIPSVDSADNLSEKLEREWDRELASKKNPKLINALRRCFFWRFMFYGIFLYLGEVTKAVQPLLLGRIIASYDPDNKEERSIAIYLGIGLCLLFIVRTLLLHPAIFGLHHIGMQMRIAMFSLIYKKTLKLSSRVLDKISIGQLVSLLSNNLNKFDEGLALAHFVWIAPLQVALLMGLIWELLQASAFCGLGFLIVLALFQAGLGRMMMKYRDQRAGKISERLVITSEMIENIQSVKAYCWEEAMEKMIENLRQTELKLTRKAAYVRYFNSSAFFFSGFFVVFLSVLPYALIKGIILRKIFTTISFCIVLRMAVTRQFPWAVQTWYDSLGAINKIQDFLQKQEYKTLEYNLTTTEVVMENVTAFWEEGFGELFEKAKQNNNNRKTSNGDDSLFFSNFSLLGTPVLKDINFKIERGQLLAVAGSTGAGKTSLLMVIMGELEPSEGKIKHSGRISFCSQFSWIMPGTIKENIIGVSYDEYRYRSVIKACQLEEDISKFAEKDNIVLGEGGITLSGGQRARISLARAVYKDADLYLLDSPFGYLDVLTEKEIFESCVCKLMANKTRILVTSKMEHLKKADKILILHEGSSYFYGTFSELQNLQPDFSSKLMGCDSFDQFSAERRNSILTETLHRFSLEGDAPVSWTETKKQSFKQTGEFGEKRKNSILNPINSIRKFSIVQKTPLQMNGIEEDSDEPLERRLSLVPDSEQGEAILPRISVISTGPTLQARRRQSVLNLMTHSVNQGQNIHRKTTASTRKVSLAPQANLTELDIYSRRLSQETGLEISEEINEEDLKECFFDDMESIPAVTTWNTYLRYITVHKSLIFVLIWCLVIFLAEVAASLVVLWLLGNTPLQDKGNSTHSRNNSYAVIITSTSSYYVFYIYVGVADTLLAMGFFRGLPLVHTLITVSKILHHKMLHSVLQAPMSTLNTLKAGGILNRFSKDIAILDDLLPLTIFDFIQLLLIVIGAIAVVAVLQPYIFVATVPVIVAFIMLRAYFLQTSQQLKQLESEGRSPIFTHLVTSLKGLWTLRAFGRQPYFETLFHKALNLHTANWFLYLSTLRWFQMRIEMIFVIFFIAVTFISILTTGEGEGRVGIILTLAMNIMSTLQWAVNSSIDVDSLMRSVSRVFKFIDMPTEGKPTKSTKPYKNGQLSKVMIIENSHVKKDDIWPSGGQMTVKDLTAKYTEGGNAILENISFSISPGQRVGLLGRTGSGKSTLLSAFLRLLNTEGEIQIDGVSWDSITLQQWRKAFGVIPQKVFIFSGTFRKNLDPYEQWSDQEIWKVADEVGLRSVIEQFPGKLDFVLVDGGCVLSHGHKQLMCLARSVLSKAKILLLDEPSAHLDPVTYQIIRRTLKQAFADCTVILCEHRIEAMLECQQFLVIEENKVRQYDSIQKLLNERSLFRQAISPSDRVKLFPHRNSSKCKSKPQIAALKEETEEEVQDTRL
Assay: Iodide (125I) efflux from HeLa cells expressing F508del-CFTR
Format: cell-based
Details: HeLa, activators Fsk 10 μM + Gst 30 μM, relative to VX809 normalized at 100%, untreated cells 3.6%
Entries and their Emax values follow.

Previously resolved entries follow.
MOLECULE	ASSAYED TARGET	Emax
CN(c1ccc(C(=O)O)cc1)c1ncnc(Cl)c1[N+](=O)[O-]	F508del-CFTR (Homo sapiens, UniProt P13569, DEL508-508)	10 to 35%
Nc1nc(OCCCc2ccccc2)nc2[nH]cnc12	F508del-CFTR (Homo sapiens, UniProt P13569, DEL508-508)	10 to 35%
Nc1ncnc(N)c1N	F508del-CFTR (Homo sapiens, UniProt P13569, DEL508-508)	≥ 60%
C[C@H](Nc1nc(Cl)nc2c1ncn2Cc1ccc(C(N)=O)cc1)C(=O)OC(C)(C)C	F508del-CFTR (Homo sapiens, UniProt P13569, DEL508-508)	10 to 35%
COc1ccc(CNc2nc(Cl)nc3c2ncn3C2CCCCO2)cc1 (stereo not shown)	F508del-CFTR (Homo sapiens, UniProt P13569, DEL508-508)	10 to 35%
NC(=O)c1ccc(-n2cnc3c(NC(CO)CO)nc(Cl)nc32)cc1	F508del-CFTR (Homo sapiens, UniProt P13569, DEL508-508)	≥ 60%
COc1ccc(CNc2nc(Cl)nc3c2ncn3Cc2ccccc2)cc1	F508del-CFTR (Homo sapiens, UniProt P13569, DEL508-508)	≥ 60%
Nc1nc(NCCCc2ccccc2)nc2[nH]cnc12	F508del-CFTR (Homo sapiens, UniProt P13569, DEL508-508)	≥ 60%

Prompt line: Quick one: Emax of NC(=O)c1ccc(-n2cnc3c(N)nc(N)nc32)cc1 [Compound 20, 4-(2,6-diamino-9H-purin-9-yl)benzamide] ?
Response line: 35 to 60%

Prompt line: Quick one: Emax of NC(=O)c1ccc(-n2nnc3c(Cl)ncnc32)cc1 ?
Response line: ≥ 60%

###

Target: F508del-CFTR (Homo sapiens, UniProt P13569, DEL508-508)
Construct: expressed in transfected cells; host or cells: HeLa cells (spTCF-ΔF), selected with Zeocin
Assay: Iodide (125I) efflux from HeLa cells expressing F508del-CFTR
Assay type: cell-based
Conditions: HeLa, activators Fsk 10 μM + Gst 30 μM, relative to VX809 normalized at 100%, untreated cells 3.6%
Entries and their Emax values follow.

MOLECULE	ASSAYED TARGET	Emax
Nc1nc(Nc2ccc(CO)cc2)c2ncn(-c3ccc(CO)cc3)c2n1 [Compound 117]	F508del-CFTR (Homo sapiens, UniProt P13569, DEL508-508)	35 to 60%
C[C@H](Nc1nc(NCCCc2ccccc2)nc2c1ncn2-c1ccccc1)C(=O)O [Compound 83]	F508del-CFTR (Homo sapiens, UniProt P13569, DEL508-508)	10 to 35%
C[C@H](Nc1nc(Cl)nc2c1ncn2-c1ccccc1)C(=O)OC(C)(C)C [Compound 81]	F508del-CFTR (Homo sapiens, UniProt P13569, DEL508-508)	10 to 35%

Prompt line: Quick one: Emax of COc1ccc(CNc2nc(Cl)nc3[nH]cnc23)cc1 [Compound 9] ?
Response line: 10 to 35%

Prompt line: Quick one: Emax of O=[N+]([O-])c1c(O)nc(O)nc1Cl [Compound 103, 6-chloro-5-nitropyrimidine-2,4-diol] ?
Response line: 10 to 35%

Prompt line: Quick one: Emax of COc1ccc(-n2cnc3c(O)nc(N)nc32)cc1OC [Compound 91] ?
Response line: 10 to 35%

Prompt line: Quick one: Emax of Clc1nc(Cl)c2ncn(-c3cccnc3)c2n1 [Compound 94, 2,6-dichloro-9-(pyridin-3-yl)-9H-purine] ?
Response line: 10 to 35%

Prompt line: Quick one: Emax of NC(=O)c1ccc(Nc2ncnc(Cl)c2N)cc1 [Compound 49] ?
Response line: ≥ 60%

Prompt line: Quick one: Emax of NC(=O)c1ccc(-n2cnc3cnc(N)nc32)cc1 [Compound 63, 4-(2-amino-9H-purin-9-yl)benzamide] ?
Response line: 10 to 35%

Prompt line: Quick one: Emax of Nc1c(Cl)ncnc1Nc1ccc(S(N)(=O)=O)cc1 [Compound 56] ?
Response line: ≥ 60%

Prompt line: Quick one: Emax of NC(=O)c1ccc(-n2cnc3c(Cl)ncnc32)cc1 [Compound 16, 4-(6-chloro-9H-purin-9-yl)benzamide] ?
Response line: 10 to 35%

Prompt line: Quick one: Emax of NC(=O)c1ccc(Sc2ncnc(Cl)c2N)cc1 [Compound 108] ?
Response line: 10 to 35%

Prompt line: Quick one: Emax of NC(=O)c1ccc(-n2ccc3c(Cl)ncnc32)cc1 [Compound 112] ?
Response line: 10 to 35%

###

Biological target: F508del-CFTR (Homo sapiens, UniProt P13569, DEL508-508)
Construct: expressed in transfected cells; host or cells: HeLa cells (spTCF-ΔF), selected with Zeocin
Test: Iodide (125I) efflux from HeLa cells expressing F508del-CFTR
Assay type: cell-based
Conditions: HeLa, activators Fsk 10 μM + Gst 30 μM, relative to VX809 normalized at 100%, untreated cells 3.6%
ENDPOINT: Emax

CHEMICAL STRUCTURE	MEAS VALUE
NC(=O)c1ccc(Cn2cnc3c(N[C@@H](CO)C(=O)O)nc(Cl)nc32)cc1	35 to 60%
C[C@H](Nc1nc(NCCCc2ccccc2)nc2c1ncn2-c1ccc(CO)cc1)C(=O)O	≥ 60%

Prompt line: Quick one: Emax of COc1ccc(CNc2nc(NCCCc3ccccc3)nc3[nH]cnc23)cc1 ?
Response line: 35 to 60%

Prompt line: Quick one: Emax of NC(=O)c1ccc(Nc2cc(O)nc(O)n2)cc1 ?
Response line: 10 to 35%

Prompt line: Quick one: Emax of Cc1nc(Cl)c(N)c(Nc2ccc(C(N)=O)cc2)n1 ?
Response line: 35 to 60%

###

Entries and their Emax values follow.
Target: F508del-CFTR (Homo sapiens, UniProt P13569, DEL508-508)
Construct: expressed in transfected cells; host or cells: HeLa cells (spTCF-ΔF), selected with Zeocin
Experiment: Iodide (125I) efflux from HeLa cells expressing F508del-CFTR
Assay type: cell-based
Conditions: HeLa, activators Fsk 10 μM + Gst 30 μM, relative to VX809 normalized at 100%, untreated cells 3.6%
Experimental: Pharmacology, chemicals and reagents. The CFTR activator forskolin and potentiator genistein (Illek et al., 1995) were purchased from LC Laboratories (PKC Pharmaceuticals, Woburn, Mass.). […] The loss of intracellular ^125I was determined by removing the medium with efflux buffer every 1 min for up to 10 min. […] Residual radioactivity was extracted with 0.1 N NaOH/0.1% SDS, and determined using a Packard Cobra™ II gamma counter (Perkin Elmer life Sciences, Courtaboeuf, France). […]

Prompt line: Quick one: Emax of NC(=O)c1ccc(Nc2c[n+]([O-])ccc2[N+](=O)[O-])cc1 ?
Response line: ≥ 60%

Prompt line: Quick one: Emax of CN(c1ccc(C(N)=O)cc1)c1ncnc(Cl)c1N ?
Response line: ≥ 60%

Prompt line: Quick one: Emax of Nc1nc(O)c2ncn(-c3ccc(C(=O)O)cc3)c2n1 ?
Response line: ≥ 60%

Prompt line: Quick one: Emax of NC(=O)c1ccc(-c2ccnc3ccccc23)cc1 [Compound II-1, 4-(quinolin-4-yl)benzamide] ?
Response line: ≥ 60%

Prompt line: Quick one: Emax of Nc1nc(Cl)nc2c1ncn2-c1ccc(CO)cc1 ?
Response line: ≥ 60%

Prompt line: Quick one: Emax of COc1ccc(CNc2nc(OCCc3ccccc3)nc3c2ncn3C2CCCCO2)cc1 (stereo not drawn) ?
Response line: 10 to 35%

Prompt line: Quick one: Emax of NC(=O)c1ccc(-n2cnc3cncnc32)cc1 [Compound 116, 4-(9H-purin-9-yl)benzamide] ?
Response line: 35 to 60%

###

Molecular target: F508del-CFTR (Homo sapiens, UniProt P13569, DEL508-508)
Construct: expressed in transfected cells; host or cells: HeLa cells (spTCF-ΔF), selected with Zeocin
Assay: Iodide (125I) efflux from HeLa cells expressing F508del-CFTR
Type: cell-based
Conditions: HeLa, activators Fsk 10 μM + Gst 30 μM, relative to VX809 normalized at 100%, untreated cells 3.6%
ENDPOINT: Emax

Previously resolved entries follow.
MOLECULE	ENDPOINT	MEAS VALUE
Nc1nc(NCCCc2cccc(F)c2)nc2[nH]cnc12	Emax	35 to 60%
NC(=O)c1ccc(-n2cnc3c(N)nc(Cl)nc32)cc1	Emax	35 to 60%
Cc1ccc(Nc2ncnc(Cl)c2N)cc1	Emax	35 to 60%

Prompt line: Quick one: Emax of Nc1nc(NCCc2ccc(F)cc2)nc2[nH]cnc12 ?
Response line: 35 to 60%

Prompt line: Quick one: Emax of NC(=O)c1ccc(Cn2cnc3c(Cl)nc(Cl)nc32)cc1 ?
Response line: 10 to 35%

Prompt line: Quick one: Emax of COC(=O)c1ccc(-n2cnc3c(O)nc(N)nc32)cc1 ?
Response line: 10 to 35%

Prompt line: Quick one: Emax of Nc1nc(Cl)c(NC=O)c(Cl)n1 ?
Response line: 35 to 60%

Prompt line: Quick one: Emax of NC(=O)c1ccc(Nc2ncccc2N)cc1 ?
Response line: ≥ 60%

Prompt line: Quick one: Emax of NC(=O)c1ccc(-c2nc(N)c3nc[nH]c3n2)cc1 [Compound 130, 4-(6-amino-9H-purin-2-yl)benzamide] ?
Response line: ≥ 60%
